Assay: Safety index, ratio of MTC for test compound to MTC for thioridazine for cytotoxicity in human monocyte-derived macrophages
Type: cell-based, Macrophage cell line
parameter: selectivity ratio

get_value(item= CCCOc1ccc(-c2cn(CCN3CCCCC3)c3ccccc3c2=O)cc1 , readout=selectivity ratio) returns 4 to 6

get_value(item= CCCOc1ccc(-c2cn(CCN(CC)CC)c3ccccc3c2=O)cc1 , readout=selectivity ratio) returns 4 to 6

get_value(item= CCCOc1ccc(-c2cn(CCN3CCCCCC3)c3ccccc3c2=O)cc1 , readout=selectivity ratio) returns 4 to 6

---

Tested on: Mycobacterium avium
Conditions: isolate MAV1
parameter: MIC

Form field, MIC with Mycobacterium avium, item CCCOc1ccc(-c2cn(CCN3CCCCC3)c3ccccc3c2=O)cc1 : < 4 µg/mL

Form field, MIC with Mycobacterium avium, item CCCOc1ccc(-c2cn(CCN3CCCCCC3)c3ccccc3c2=O)cc1 : < 4 µg/mL

Form field, MIC with Mycobacterium avium, item CN(C)CCCN1c2ccccc2Sc2ccc(Cl)cc21 : < 4 µg/mL

Form field, MIC with Mycobacterium avium, item CCCOc1ccc(-c2cn(CCN(CC)CC)c3ccccc3c2=O)cc1 : 32 µg/mL

Form field, MIC with Mycobacterium avium, item CSc1ccc2c(c1)N(CCC1CCCCN1C)c1ccccc1S2 (stereo not given) : < 4 µg/mL
